# study target: NaV1.7 (Rattus norvegicus)
# Sequence (O08562 whole entry): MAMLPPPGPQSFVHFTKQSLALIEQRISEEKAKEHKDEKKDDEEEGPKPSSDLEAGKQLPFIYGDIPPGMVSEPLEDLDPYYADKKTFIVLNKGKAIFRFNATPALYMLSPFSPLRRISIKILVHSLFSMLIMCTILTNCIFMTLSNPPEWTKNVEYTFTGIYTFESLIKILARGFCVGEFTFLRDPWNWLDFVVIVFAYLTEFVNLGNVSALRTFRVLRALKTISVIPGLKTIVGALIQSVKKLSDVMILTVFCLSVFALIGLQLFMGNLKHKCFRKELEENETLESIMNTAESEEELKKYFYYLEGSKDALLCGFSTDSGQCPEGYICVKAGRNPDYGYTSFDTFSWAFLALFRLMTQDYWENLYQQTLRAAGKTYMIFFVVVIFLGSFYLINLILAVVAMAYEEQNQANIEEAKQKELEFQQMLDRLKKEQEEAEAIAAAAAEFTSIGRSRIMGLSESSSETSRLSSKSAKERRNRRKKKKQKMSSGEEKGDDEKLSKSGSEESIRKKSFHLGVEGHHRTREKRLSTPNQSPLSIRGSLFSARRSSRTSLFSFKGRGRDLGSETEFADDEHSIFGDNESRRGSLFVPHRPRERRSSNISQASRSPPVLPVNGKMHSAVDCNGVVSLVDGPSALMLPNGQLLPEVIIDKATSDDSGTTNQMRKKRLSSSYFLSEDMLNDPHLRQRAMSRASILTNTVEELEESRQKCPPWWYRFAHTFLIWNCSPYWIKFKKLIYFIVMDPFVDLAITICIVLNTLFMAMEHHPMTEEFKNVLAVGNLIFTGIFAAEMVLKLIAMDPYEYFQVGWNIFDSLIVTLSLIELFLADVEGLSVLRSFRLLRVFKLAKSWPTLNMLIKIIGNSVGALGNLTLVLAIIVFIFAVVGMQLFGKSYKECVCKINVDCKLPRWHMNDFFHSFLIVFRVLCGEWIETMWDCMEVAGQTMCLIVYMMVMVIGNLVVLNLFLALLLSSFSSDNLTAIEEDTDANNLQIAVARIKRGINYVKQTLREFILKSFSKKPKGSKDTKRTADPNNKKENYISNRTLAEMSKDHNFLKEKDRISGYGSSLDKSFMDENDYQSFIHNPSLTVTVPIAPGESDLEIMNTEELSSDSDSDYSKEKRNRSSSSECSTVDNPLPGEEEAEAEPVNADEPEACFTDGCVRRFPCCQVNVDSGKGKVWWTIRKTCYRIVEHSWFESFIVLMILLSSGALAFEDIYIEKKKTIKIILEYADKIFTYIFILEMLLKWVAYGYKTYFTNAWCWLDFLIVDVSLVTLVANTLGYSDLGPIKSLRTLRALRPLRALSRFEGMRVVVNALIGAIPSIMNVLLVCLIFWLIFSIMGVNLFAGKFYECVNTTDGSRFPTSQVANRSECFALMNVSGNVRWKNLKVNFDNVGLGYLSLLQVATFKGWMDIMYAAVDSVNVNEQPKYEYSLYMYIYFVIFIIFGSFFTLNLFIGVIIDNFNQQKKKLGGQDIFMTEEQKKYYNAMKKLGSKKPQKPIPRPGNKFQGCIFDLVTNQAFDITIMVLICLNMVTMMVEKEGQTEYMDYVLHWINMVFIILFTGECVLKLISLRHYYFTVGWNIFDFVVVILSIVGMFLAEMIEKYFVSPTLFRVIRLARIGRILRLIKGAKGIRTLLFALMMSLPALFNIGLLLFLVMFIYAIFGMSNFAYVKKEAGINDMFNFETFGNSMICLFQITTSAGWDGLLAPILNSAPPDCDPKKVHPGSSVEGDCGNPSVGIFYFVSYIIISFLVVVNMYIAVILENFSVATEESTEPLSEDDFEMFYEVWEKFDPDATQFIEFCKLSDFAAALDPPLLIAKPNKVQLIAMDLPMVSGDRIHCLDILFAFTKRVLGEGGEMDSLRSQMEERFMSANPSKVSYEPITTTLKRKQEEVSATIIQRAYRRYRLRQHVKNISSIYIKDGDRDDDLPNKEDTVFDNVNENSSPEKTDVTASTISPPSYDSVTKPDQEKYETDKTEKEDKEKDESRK
# method description: whole-cell patch clamp, stable NaV1.[…] HEK cells (vincristine pre-incubated)
assay endpoint: IC50 (µM)

OCc1ccc(O[C@@H]2O[C@H](CO)[C@@H](O)[C@H](O)[C@H]2O)cc1 [GAS, Gastrodin] ... 25.9

###

# study target: NaV1.8 (Rattus norvegicus, UniProt Q62968)
# Sequence (Q62968 whole entry): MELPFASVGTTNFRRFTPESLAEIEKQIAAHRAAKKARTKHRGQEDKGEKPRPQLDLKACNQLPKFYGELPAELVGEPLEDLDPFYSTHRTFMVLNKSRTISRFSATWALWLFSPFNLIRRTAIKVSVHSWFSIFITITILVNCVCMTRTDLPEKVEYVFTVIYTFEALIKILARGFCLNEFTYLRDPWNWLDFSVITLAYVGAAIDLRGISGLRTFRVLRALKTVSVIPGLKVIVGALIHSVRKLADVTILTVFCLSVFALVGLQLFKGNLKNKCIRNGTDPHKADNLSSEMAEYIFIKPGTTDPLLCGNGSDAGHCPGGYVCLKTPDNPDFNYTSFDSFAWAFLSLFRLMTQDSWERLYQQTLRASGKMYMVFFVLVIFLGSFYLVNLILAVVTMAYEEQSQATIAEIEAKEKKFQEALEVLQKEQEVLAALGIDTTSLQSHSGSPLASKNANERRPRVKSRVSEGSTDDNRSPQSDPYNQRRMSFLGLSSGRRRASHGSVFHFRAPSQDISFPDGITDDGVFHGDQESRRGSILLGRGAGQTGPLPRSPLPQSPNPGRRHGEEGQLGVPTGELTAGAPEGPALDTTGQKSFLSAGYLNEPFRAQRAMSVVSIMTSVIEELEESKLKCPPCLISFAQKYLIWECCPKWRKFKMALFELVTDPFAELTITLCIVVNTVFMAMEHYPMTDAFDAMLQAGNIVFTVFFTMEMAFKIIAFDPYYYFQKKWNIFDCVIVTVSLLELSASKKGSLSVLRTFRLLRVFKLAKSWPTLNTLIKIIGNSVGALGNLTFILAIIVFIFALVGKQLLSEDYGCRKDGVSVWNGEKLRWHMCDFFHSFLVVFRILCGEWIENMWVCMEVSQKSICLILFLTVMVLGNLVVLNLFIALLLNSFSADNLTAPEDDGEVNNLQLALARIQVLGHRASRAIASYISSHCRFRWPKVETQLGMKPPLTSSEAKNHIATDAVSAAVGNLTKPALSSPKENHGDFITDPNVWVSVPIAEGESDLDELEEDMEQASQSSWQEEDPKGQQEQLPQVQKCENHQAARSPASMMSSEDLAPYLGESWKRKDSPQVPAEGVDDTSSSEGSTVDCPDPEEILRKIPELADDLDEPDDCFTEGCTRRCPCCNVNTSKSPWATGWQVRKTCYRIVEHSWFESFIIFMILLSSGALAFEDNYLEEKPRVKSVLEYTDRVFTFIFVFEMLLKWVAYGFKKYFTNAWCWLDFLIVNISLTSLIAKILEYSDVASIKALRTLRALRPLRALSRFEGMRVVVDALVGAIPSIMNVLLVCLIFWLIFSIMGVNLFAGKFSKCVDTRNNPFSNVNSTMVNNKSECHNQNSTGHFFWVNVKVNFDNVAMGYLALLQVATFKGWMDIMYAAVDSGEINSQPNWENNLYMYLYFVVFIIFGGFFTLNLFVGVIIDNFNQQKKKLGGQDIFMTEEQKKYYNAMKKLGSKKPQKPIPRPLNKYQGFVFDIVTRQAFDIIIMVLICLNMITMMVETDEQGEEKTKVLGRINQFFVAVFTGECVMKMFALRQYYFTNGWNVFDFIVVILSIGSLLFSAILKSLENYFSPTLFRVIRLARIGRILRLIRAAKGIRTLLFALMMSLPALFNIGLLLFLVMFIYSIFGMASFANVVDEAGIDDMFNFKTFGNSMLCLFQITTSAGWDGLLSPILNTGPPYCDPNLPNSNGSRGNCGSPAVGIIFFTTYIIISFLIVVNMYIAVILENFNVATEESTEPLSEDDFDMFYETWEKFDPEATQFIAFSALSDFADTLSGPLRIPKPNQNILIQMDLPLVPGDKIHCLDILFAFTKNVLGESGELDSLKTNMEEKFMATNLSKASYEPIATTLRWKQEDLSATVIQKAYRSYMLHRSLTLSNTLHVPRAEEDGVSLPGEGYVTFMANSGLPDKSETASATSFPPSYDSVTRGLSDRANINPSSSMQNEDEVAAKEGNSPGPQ
pIC50: −log10 of the molar value.
assay endpoint: pIC50

OCc1ccc(O[C@@H]2O[C@H](CO)[C@@H](O)[C@H](O)[C@H]2O)cc1 ... 4.17
